assay_procedure: Pharmacokinetics in mice
Format: in vivo
cond: mouse, po; male CD-1 mice, 10 mg/kg, gavage, plasma
Protocol: The pharmacokinetic properties of the compounds of the present disclosure in mice were determined with reference to the following experimental methods. Three male CD-1 mice were used, administered at a dose of 10 mg/kg, the route of administration was by gavage, and the vehicle was 5% DMSO+10% Solutol+85% Saline. […] 200 μL of the mixture was transferred to a 96-well injection plate for LC-MS/MS quantitative analysis. […]
What AUC(0-t) was measured for each of the following?
Report the figure in ng·h/mL without appending any unit label.

Query: Name the recorded AUC(0-t) of the item Cn1ccc2cc(N3CC4CC4c4cc(C(=O)N5CCC(F)(F)CC5)cnc43)ccc2c1=O (centres unmarked) in your answer.
Reply: 107000

Query: Name the recorded AUC(0-t) of the item Cn1nc2cc(N3CC4CC4c4cc(C(=O)N5CCC6(CC5)CC6)cnc43)ccn2c1=O (centres unmarked) in your answer.
Reply: 10700
